target: CD28 (human) (UniProt P10747); assay: flow cytometry, transfected cells
Property Measured: log10 MFI (log10 of the value in MFI)
Values reflect log10 of reported MFI (MFI).

Would you please look over these solved cases?
ICOSL ECD-Fc N168Q (Fc fusion) DTQEKEVRAMVGSDVELSCACPEGSRFDLNDVYVYWQTSESKTVVTYHIPQNSSLENVDSRYRNRALMSPAGMLRGDFSLRLFNVTPQDEQKFHCLVLSQSLGFQEVLSVEVTLHVAANFSVPVVSAPHSPSQDELTFTCTSINGYPRPNVYWINKTDNSLLDQALQQDTVFLNMRGLYDVVSVLRIARTPSVNIGCCIENVLLQQNLTVGSQTGNDIGERDKITENPVSTGEKNAAT; 3.15
ICOSL-Fc N52L/N57V (Fc fusion) DTQEKEVRAMVGSDVELSCACPEGSRFDLNDVYVYWQTSESKTVVTYHIPQLSSLEVVDSRYRNRALMSPAGMLRGDFSLRLFNVTPQDEQKFHCLVLSQSLGFQEVLSVEVTLHVAANFSVPVVSAPHSPSQDELTFTCTSINGYPRPNVYWINKTDNSLLDQALQNDTVFLNMRGLYDVVSVLRIARTPSVNIGCCIENVLLQQNLTVGSQTGNDIGERDKITENPVSTGEKNAAT; 4.74
ICOSL-Fc N52R/N57L/Q100A (Fc fusion) DTQEKEVRAMVGSDVELSCACPEGSRFDLNDVYVYWQTSESKTVVTYHIPQRSSLELVDSRYRNRALMSPAGMLRGDFSLRLFNVTPQDEQKFHCLVLSASLGFQEVLSVEVTLHVAANFSVPVVSAPHSPSQDELTFTCTSINGYPRPNVYWINKTDNSLLDQALQNDTVFLNMRGLYDVVSVLRIARTPSVNIGCCIENVLLQQNLTVGSQTGNDIGERDKITENPVSTGEKNAAT; 5.08

stdin: Which value of log10 MFI has been reported for ICOSL ECD-Fc N52Q/N84Q (Fc fusion) DTQEKEVRAMVGSDVELSCACPEGSRFDLNDVYVYWQTSESKTVVTYHIPQQSSLENVDSRYRNRALMSPAGMLRGDFSLRLFQVTPQDEQKFHCLVLSQSLGFQEVLSVEVTLHVAANFSVPVVSAPHSPSQDELTFTCTSINGYPRPNVYWINKTDNSLLDQALQNDTVFLNMRGLYDVVSVLRIARTPSVNIGCCIENVLLQQNLTVGSQTGNDIGERDKITENPVSTGEKNAAT in the records?
stdout: 3.23

stdin: State the recorded log10 MFI for this entry: ICOSL-Fc N57Q/Q100P (Fc fusion) DTQEKEVRAMVGSDVELSCACPEGSRFDLNDVYVYWQTSESKTVVTYHIPQNSSLEQVDSRYRNRALMSPAGMLRGDFSLRLFNVTPQDEQKFHCLVLSPSLGFQEVLSVEVTLHVAANFSVPVVSAPHSPSQDELTFTCTSINGYPRPNVYWINKTDNSLLDQALQNDTVFLNMRGLYDVVSVLRIARTPSVNIGCCIENVLLQQNLTVGSQTGNDIGERDKITENPVSTGEKNAAT
stdout: 4.18

stdin: Give the measured log10 MFI of ICOSL-Fc N52S/N57Y/Q100S (Fc fusion) DTQEKEVRAMVGSDVELSCACPEGSRFDLNDVYVYWQTSESKTVVTYHIPQSSSLEYVDSRYRNRALMSPAGMLRGDFSLRLFNVTPQDEQKFHCLVLSSSLGFQEVLSVEVTLHVAANFSVPVVSAPHSPSQDELTFTCTSINGYPRPNVYWINKTDNSLLDQALQNDTVFLNMRGLYDVVSVLRIARTPSVNIGCCIENVLLQQNLTVGSQTGNDIGERDKITENPVSTGEKNAAT .
stdout: 5.21

stdin: Requested read-out: log10 MFI. Entry: ICOSL ECD-Fc N84Q/N168Q/N207Q (Fc fusion) DTQEKEVRAMVGSDVELSCACPEGSRFDLNDVYVYWQTSESKTVVTYHIPQNSSLENVDSRYRNRALMSPAGMLRGDFSLRLFQVTPQDEQKFHCLVLSQSLGFQEVLSVEVTLHVAANFSVPVVSAPHSPSQDELTFTCTSINGYPRPNVYWINKTDNSLLDQALQQDTVFLNMRGLYDVVSVLRIARTPSVNIGCCIENVLLQQQLTVGSQTGNDIGERDKITENPVSTGEKNAAT
stdout: 2.87

stdin: Need log10 MFI, item ICOSL-Fc N52G/N57V/Q100G (Fc fusion) DTQEKEVRAMVGSDVELSCACPEGSRFDLNDVYVYWQTSESKTVVTYHIPQGSSLEVVDSRYRNRALMSPAGMLRGDFSLRLFNVTPQDEQKFHCLVLSGSLGFQEVLSVEVTLHVAANFSVPVVSAPHSPSQDELTFTCTSINGYPRPNVYWINKTDNSLLDQALQNDTVFLNMRGLYDVVSVLRIARTPSVNIGCCIENVLLQQNLTVGSQTGNDIGERDKITENPVSTGEKNAAT
stdout: 4.37

stdin: If you can, please state the reported log10 MFI value of ICOSL-Fc N52S/N57Y/Q100M (Fc fusion) DTQEKEVRAMVGSDVELSCACPEGSRFDLNDVYVYWQTSESKTVVTYHIPQSSSLEYVDSRYRNRALMSPAGMLRGDFSLRLFNVTPQDEQKFHCLVLSMSLGFQEVLSVEVTLHVAANFSVPVVSAPHSPSQDELTFTCTSINGYPRPNVYWINKTDNSLLDQALQNDTVFLNMRGLYDVVSVLRIARTPSVNIGCCIENVLLQQNLTVGSQTGNDIGERDKITENPVSTGEKNAAT .
stdout: 5.20

stdin: Tell me the measured log10 MFI of ICOSL-Fc N52S/N57M/Q100S (Fc fusion) DTQEKEVRAMVGSDVELSCACPEGSRFDLNDVYVYWQTSESKTVVTYHIPQSSSLEMVDSRYRNRALMSPAGMLRGDFSLRLFNVTPQDEQKFHCLVLSSSLGFQEVLSVEVTLHVAANFSVPVVSAPHSPSQDELTFTCTSINGYPRPNVYWINKTDNSLLDQALQNDTVFLNMRGLYDVVSVLRIARTPSVNIGCCIENVLLQQNLTVGSQTGNDIGERDKITENPVSTGEKNAAT , please.
stdout: 5.13

Recorded values, source patent US20250163127A1.
